Tested System: human DOR (Homo sapiens)
Construct: expressed in transfected cells; host or cells: CHO cells (membrane preparation)
Sequence (P41143 whole entry): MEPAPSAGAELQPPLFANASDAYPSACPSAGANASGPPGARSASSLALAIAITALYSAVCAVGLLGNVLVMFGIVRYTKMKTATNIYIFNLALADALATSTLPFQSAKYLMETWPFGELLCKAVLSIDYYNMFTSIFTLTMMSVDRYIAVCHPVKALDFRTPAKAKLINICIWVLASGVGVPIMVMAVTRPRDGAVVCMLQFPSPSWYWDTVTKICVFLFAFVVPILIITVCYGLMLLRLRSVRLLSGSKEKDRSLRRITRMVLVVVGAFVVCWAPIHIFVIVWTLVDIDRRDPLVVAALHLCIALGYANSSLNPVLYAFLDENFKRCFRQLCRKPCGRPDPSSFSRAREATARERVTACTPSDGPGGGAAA
Method: Competitive binding assay, [3H]DPDPE displacement, DOR
pKi: −log10 of the molar value.
Value Kind: pKi

>  <Compound>
CS(=O)(=O)N1CCC23c4c5ccc(O)c4OC2c2[nH]c4ccccc4c2CC3(O)C1C5 (centres unmarked) [9a]

>  <Experimental Value>
6.55

$$$$
>  <Compound>
C=CS(=O)(=O)N1CCC23c4c5ccc(O)c4OC2c2[nH]c4ccccc4c2CC3(O)C1C5 (centres unmarked) [9g]

>  <Experimental Value>
6.71

$$$$
>  <Compound>
O=S(=O)(N1CCC23c4c5ccc(O)c4OC2c2[nH]c4ccccc4c2CC3(O)C1C5)C(F)(F)F (centres unmarked) [9b]

>  <Experimental Value>
6.44

$$$$
>  <Compound>
O=S(=O)(CCc1ccccc1)N1CCC23c4c5ccc(O)c4OC2c2[nH]c4ccccc4c2CC3(O)C1C5 (centres unmarked) [9e]

>  <Experimental Value>
6.88

$$$$
>  <Compound>
O=S(=O)(C1CC1)N1CCC23c4c5ccc(O)c4OC2c2[nH]c4ccccc4c2CC3(O)C1C5 (centres unmarked) [9f]

>  <Experimental Value>
8.13

$$$$
>  <Compound>
O=S(=O)(c1ccccc1)N1CCC23c4c5ccc(O)c4OC2c2[nH]c4ccccc4c2CC3(O)C1C5 (centres unmarked) [9c]

>  <Experimental Value>
7.30

$$$$
>  <Compound>
O=S(=O)(Cc1ccccc1)N1CCC23c4c5ccc(O)c4OC2c2[nH]c4ccccc4c2CC3(O)C1C5 (centres unmarked) [9d]

>  <Experimental Value>
6.13

$$$$
>  <Compound>
Oc1ccc2c3c1O[C@H]1c4[nH]c5ccccc5c4C[C@@]4(O)[C@@H](C2)N(CCCc2ccccc2)CC[C@]314 [SYK-903]

>  <Experimental Value>
6.78

$$$$
